Short version: MDR1-MDCK efflux ratio at least 0.9 is true (1), less is false (0).

Tell me whether MDR1-MDCK efflux ratio is at least 0.9 here: `O=C([C@H]1CCCN(Cc2ccc(Cl)cc2)C1)N1CCc2ccccc2C1`
false (0)

Same for `O=C(Nc1cccc(-c2nncn2C2CC2)c1)c1cc(-n2cnc(C3CC3)c2)ccn1`
true (1)

###

measurementContext: pH 6.8
measurementName: aqueous solubility
Just so you know, I need the unit written after the number.

Here is how some compounds turned out for aqueous solubility.
CC(C)(C)n1ncc(C(=O)N2CCCn3ncnc32)c1C(F)(F)F ... 46.2 µg/mL
Cc1nc(O)cc(C2CN(C3CCCCC3)C2)n1 ... 41.4 µg/mL

Consider the additional compound presented here.
Item `CN(c1ccc(NC(=O)Nc2ccc(OC(F)(F)F)cc2)cc1)c1ccnc(Nc2cccc(S(N)(=O)=O)c2)n1` has what recorded aqueous solubility?
1.95 µg/mL

###

Collected intrinsic clearance, human liver microsomes values appear next to each entry.

Some molecules with recorded intrinsic clearance, human liver microsomes:
Cc1noc(C)c1CSC(=N)N1CCOCC1 ... ≤ 4.74 mL/min/kg
Cc1ccc2nc(C)c(-c3nc(C)nn3CCO)cc2c1 ... ≤ 4.74 mL/min/kg
Cc1nn(C)c(C)c1NC(=O)CN1CCN(c2nccs2)CC1 ... ≤ 4.74 mL/min/kg

Entry under review: `Cc1ccc(C(=O)Nc2ccccc2C(C)(C)C)cn1` . Reported intrinsic clearance, human liver microsomes?
≤ 4.74 mL/min/kg

Param item: `Cc1ccnc(Oc2cc(N)ccc2C)c1`
≤ 4.74 mL/min/kg

###

Each entry below lists one item and its recorded MDR1-MDCK efflux ratio value.
Please give only the number in your answer, with no unit.

Use these answered entries as a reference point.
CN(CCn1cnc(C#N)c1C#N)c1ccccc1 ... 0.634
O=C(NC1CCCC1)N1CCN(c2nccn3nc4c(c23)CCCC4)CC1 ... 2
O=C(NN1CCOCC1)c1ccc(Cl)c(Cl)c1 ... 0.691
CN(Cc1cnn(C)c1)c1ncnc2c1oc1ccccc12 ... 0.969
O=C(CCc1cc2ccccc2o1)N1CCN(c2cnccn2)CC1 ... 0.629

# query: MDR1-MDCK efflux ratio of entry `Cc1c(C(=O)Nc2ccc(N3CCC(N4CCOCC4)CC3)c(C#N)c2)cnn1-c1ccc(Cl)cc1`
11.5

// next record `CN1CCc2nc(C(=O)N[C@H]3C[C@@H](C(=O)N(C)C)CC[C@@H]3NC(=O)C(=O)Nc3ccc(Cl)cn3)sc2C1`
178

Same lookup for `CN(Cc1ccc(N)nc1)c1ncccn1` , please.
0.62

Now the same for `Cc1ccc(-n2ccnc2-c2ccoc2)c2cccnc12`
0.946

Can you handle `COc1cc2c(cc1NC(C)=O)oc1ccccc12` next?
0.379

Record: NC1CCCC(C(=O)Nc2cccc(N3CCNC3=O)c2)C1 (centres undefined)
1.33

Lookup `COCCCNc1nnc(-c2ccncc2)s1`
0.654

Moving on to the next molecule: `CCCc1nnc(N2CCC3(CCCC3)C2)s1`
0.525

Okay, and `Cc1c(C)n(Cc2ccccc2)c2ncnc(N)c12` ?
0.607

###

Note to self: class = bucket of intrinsic clearance, human liver microsomes, per bucket A (below 20 mL/min/kg), bucket B (20 mL/min/kg to below 60 mL/min/kg), bucket C (60 mL/min/kg or more)

CC(C)CC(=O)Nc1cccnc1N(C)C ... bucket A

Class label required: `CC(C)c1nccn1Cc1nc2ccccc2[nH]1`
bucket A

// same read-out, input: `CCN(C(=O)c1cccc(-n2cccn2)c1)c1ccc(C#N)c(Cl)c1`
bucket C

Entry to check: `C[C@H]1CN(C2COC2)CCN1c1ccc(Nc2cc(-c3ccnc(N4CCn5c(cc6c5CC(C)(C)C6)C4=O)c3CO)cn(C)c2=O)nc1`
bucket A

Same for `Oc1ccc(CN2CCN(c3cccc(Cl)c3)CC2)cc1`
bucket B

And then `O=C(O)c1cnc(/C=C/c2csc(-c3ccsc3)n2)s1` , what is it?
bucket A

Another compound to look at: `CC(C)c1nnc(-c2ccc(-c3ccccc3)nc2)n1-c1cccc2nonc12`
bucket A

Next up: CC(=O)NC1CCC(NCCSc2ccc(C)cc2)CC1 (centres undefined)
bucket C

Further, for `CN(Cc1nncn1C)C1CCN(c2ccccc2F)CC1` ?
bucket A

Also, `Cc1ccc2c(c1)cc(CNCCc1ccccc1)c1nnnn12` please.
bucket C

Check `Cc1cc(CN2CC(O)(CC#N)C2)ccc1F` too.
bucket A

Do the same for `O=C(c1ccc(NS(=O)(=O)c2cccc3cnccc23)cc1)N1CCCC1` please
bucket B

Let us now turn to `Cc1ccc(-c2ccnc(O)c2C#N)cc1`
bucket A

Now the compound `COc1cc2c(cc1OC)[C@@H]1CC(=O)[C@@H](CC(C)C)CN1CC2`
bucket B

Entry source: the Biogen ADME set (Fang et al. 2023)
